# Test system: cellular dehydrogenase activity
# measurement.conditions: Conc 20 μM; normalized score vs mock-treated (DMSO) wells
Give measured MTT (composite Z-score) for each item. Keep answers brief.

Example entries and their recorded answers appear below.
• C[C@@H]1[C@H]2[C@H](O[C@@H]3O[C@H](CO)[C@@H](O)[C@H](O)[C@H]3O)OC=C(C(=O)O)[C@H]2C[C@@H]1O = −0.538
• O=C1c2ccc(O)cc2OC(c2cc(O)c(O)c(O)c2)C1O (stereo in doubt) [dihydrorobinetin, reference compound] = −1.259
• CCOc1ccc(C(=O)C2=C(O)C(OC)C(O)(OC)C=C2)cc1 (stereo not shown) = −1.130

Read the next record carefully.
Enquiry: Please report the recorded MTT (composite Z-score) for COc1ccc([C@H]2COc3cc(O)ccc3C2)c(OC)c1O .
Return: −0.847

src = patent US20090143279A1
